Just for reference, ChEMBL document CHEMBL4680189 is where these values come from.

Entries annotated with measured EC50
assay: Immunosuppression-mediated antiproliferative activity against anti-CD3/anti-CD28-stimulated human PBMC cells assessed as inhibition of cell growth incubated for 72 hrs by VPD450 staining based flow cytometry; format: functional
Where a SMILES comes first, the peptide text is derived from it. [ ]: non-standard residue; d: D form. The star is where a group is joined. Mycophenolyl = COc1c(C)c2c(c(O)c1C/C=C(\C)CCC(=O)*)C(=O)OC2; Arg(NO2) = N=C(NCCC[C@H](N)C(=O)O)N[N+](=O)[O-]; βAla = NCCC(=O)O

{"Molecule": "CC[C@H](C)[C@H](N)C(=O)NCCCC[C@H](NC(=O)[C@@H]1CCCN1C(=O)[C@H](CCCNC(=N)N[N+](=O)[O-])NC(=O)CC/C(C)=C/Cc1c(O)c2c(c(C)c1OC)COC2=O)C(=O)N[C@H](C(=O)OC)[C@@H](C)O (Mycophenolyl-[Arg(NO2)]PK(Ile)T-OMe)", "Measurement units": "µM", "EC50": 152}
{"Molecule": "COC(=O)[C@@H](NC(=O)[C@H](CCCCNC(=O)CCN)NC(=O)[C@@H]1CCCN1C(=O)[C@H](CCCNC(=N)N[N+](=O)[O-])NC(=O)CC/C(C)=C/Cc1c(O)c2c(c(C)c1OC)COC2=O)[C@@H](C)O (Mycophenolyl-[Arg(NO2)]PK(βAla)T-OMe)", "Measurement units": "µM", "EC50": 154}
{"Molecule": "COC(=O)[C@H](CCCNC(=N)N[N+](=O)[O-])NC(=O)CC/C(C)=C/Cc1c(O)c2c(c(C)c1OC)COC2=O", "Measurement units": "µM", "EC50": 77}
{"Molecule": "COc1c(C)c2c(c(O)c1C/C=C(\\C)CCC(=O)N[C@H](CCCNC(=N)N[N+](=O)[O-])C(=O)O)C(=O)OC2", "Measurement units": "µM", "EC50": 588}
